Cited source: ChEMBL document CHEMBL1149930

biological target: 17-beta-hydroxysteroid dehydrogenase type 2 (Homo sapiens)
Sequence (P37059 whole entry): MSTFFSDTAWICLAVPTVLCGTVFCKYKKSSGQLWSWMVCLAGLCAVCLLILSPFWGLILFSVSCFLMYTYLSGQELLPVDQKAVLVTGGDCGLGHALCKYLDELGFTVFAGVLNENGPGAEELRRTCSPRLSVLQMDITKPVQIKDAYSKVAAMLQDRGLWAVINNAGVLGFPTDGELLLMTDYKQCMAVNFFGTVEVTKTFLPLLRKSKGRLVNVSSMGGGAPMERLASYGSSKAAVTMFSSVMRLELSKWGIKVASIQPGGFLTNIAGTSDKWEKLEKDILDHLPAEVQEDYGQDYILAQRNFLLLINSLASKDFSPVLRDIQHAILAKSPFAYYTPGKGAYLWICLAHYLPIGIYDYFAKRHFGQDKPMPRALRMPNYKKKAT
readout: pKi
Friendly reminder that pKi comes from taking -log10 of the concentration in mol/L.

input: Tell me reported pKi for `C[C@]12CC[C@@H]3c4ccc(O)cc4CC[C@H]3[C@@H]1CC[C@@]21CCC(=O)O1` , tested with 17-beta-hydroxysteroid dehydrogenase type 2 (Homo sapiens).
output: 6.60
